Catalogue of GFP response vs DMSO values
# assay_remarks: TOR pathway GLN3 branch reporter MEP2-GFP changes – S. cerevisiae, multiplex flow cytometry, MLPCN library, primary screen (AID 2016);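 further: median GFP fluorescence of the barcode-gated MEP2-GFP cells per well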
# condition_description: S. cerevisiae MEP2-GFP strain, 3 h, at 10 µM, active compounds read high, 100% = DMSO control level
Out of some 330,000 compounds screened, about 1,700 (0.52%) were called active. The entries come from a sample that favours actives as a whole.
Entry rule: numbers only, all in %.

Examples with their reported GFP response vs DMSO follow.
- Cc1noc(C)c1NC(=O)Nc1ccc2c(c1)C(=O)N([C@H](C)CO)C[C@H](C)[C@@H](CN(C)C(=O)Nc1ccc(C(F)(F)F)cc1)O2: 103
- CCOc1ccc(CN(Cc2ccco2)C(c2cccs2)c2nnnn2C(C)(C)C)cc1 (stereo not given): 98.9
- CC1(C)Cc2c(sc3nc(SCC(=O)NCc4ccccc4)n(-c4ccccc4)c(=O)c23)CS1: 107
- COCCn1c(C)cc(C(=O)CSc2nnc(C3CC3)n2C2CC2)c1C: 101

Turning now to a further molecule:
Name the reported GFP response vs DMSO value associated with the molecule Nc1nc(Sc2ncccc2[N+](=O)[O-])n[nH]1
96.3

----------
# assay_remarks: TOR pathway GLN3 branch reporter MEP2-GFP changes – S. cerevisiae, multiplex flow cytometry, MLPCN library, primary screen (AID 2016);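 further: median GFP fluorescence of the barcode-gated MEP2-GFP cells per well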
# condition_description: S. cerevisiae MEP2-GFP strain, 3 h, at 10 µM, 100% = DMSO control level
About 1,700 (0.52%) of roughly 330,000 compounds were called active.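 Rule for the calls: active = GFP response versus DMSO above a set limit, roughly screen mean plus 3 SD (cut at about 180% in these data); inconclusive = fewer than 70 cells counted for a yeast strain; inactive = the rest.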 Only a selection was taken, and actives are over-represented in it overall.
Outcome field: choose from 1 for active, -1 for inactive

Here are 4 compounds together with their reported answers.
- Cc1ccc(SCc2cc(=O)[nH]c(N3CCCCC3)n2)cc1: -1
- Nc1nnc(SCC(=O)OCc2ccc(Cl)c(Cl)c2)s1: -1
- O=C(NCCCn1ccnc1)C1CCCN(S(=O)(=O)c2cc(Cl)ccc2Cl)C1 (centres undefined): -1
- O=C(Nc1cccc2cccnc12)c1cccc(Cl)c1: 1

GET /call?item= O=[N+]([O-])c1ccc(N2CCN(S(=O)(=O)c3ccc4ccccc4c3)CC2)cc1NCc1ccco1 returns the recorded outcome of this test.
-1

Which outcome was entered for the compound Nc1nc(SCC(=O)Nc2ccc(Cl)c([N+](=O)[O-])c2)n[nH]1 in this test?
-1

Could you check what this test reported for CCOc1ncccc1C(=O)OCC(=O)NC1CC1 ?
-1

----------
# assay_remarks: TOR pathway GLN3 branch reporter MEP2-GFP changes – S. cerevisiae, multiplex flow cytometry, MLPCN library, primary screen (AID 2016);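 further: median GFP fluorescence of the barcode-gated MEP2-GFP cells per well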
# condition_description: S. cerevisiae MEP2-GFP strain, 3 h, at 10 µM, 100% = DMSO control level
Screen size: about 330,000 compounds; about 1,700 (0.52%) were called active.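 How the source made its calls: active means GFP response versus DMSO above a set limit, roughly screen mean plus 3 SD (cut at about 180% in these data); inconclusive means fewer than 70 cells counted for a yeast strain; inactive means the rest.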 The full list was thinned out, with actives kept by preference.
Output constraint: value belongs to 1.0 (active), 0.0 (inactive)

Some solved entries appear below for comparison.
- Cc1cc(NC(=O)CCC(=O)N(CC(=O)NC2CCCC2)c2ccc(F)cc2)no1: 0.0
- COc1ccc(CCNc2cc(N3CCN(C(=O)c4ccccc4OC)CC3)ccc2[N+](=O)[O-])cc1OC: 1.0
- O=C(CCN1C(=O)[C@@H]2Cc3ccccc3CN2C1=O)NCCc1ccccc1: 0.0
- CC(=O)NC(CC(=O)Nc1ccc(S(=O)(=O)N2CCOCC2)cc1)c1ccccc1 (configuration not stated): 0.0
- O=[N+]([O-])c1ccc(N/N=C/c2ccccc2)cc1: 0.0
- Cc1cc(C)c(C(N)=O)c(Cl)n1: 0.0
- CCOc1cc2[nH]c(=O)n(CCC(=O)NCc3ccc(OC)cc3)c(=O)c2cc1OCC: 1.0
- COc1ccc(CCNC(=O)c2ccccc2-c2ccccc2C(=O)O)cc1OC: 0.0

Field: outcome | Entry: COc1ccc(CNC(=O)CCn2cccc2)cc1
0.0

I'd appreciate the recorded outcome for Cc1cc(C)cc(N(CC(=O)NC2CCCC2)C(=O)CCC(=O)Nc2nccs2)c1 from this test.
0.0

What is the recorded call for this compound in the test? Cc1cc(=O)oc2cc(OCC3CC(c4ccccc4Cl)=NO3)ccc12 (configuration not stated)
0.0

Test call, this compound: COc1ccc(CNC(=O)CCN2C(=O)c3ccccc3C2=O)cc1
0.0

Call for entry O=c1c2ccccc2nc(N/N=C/c2ccccc2)n1O :
0.0

// return assay outcome for CCOc1ccc(CCNC(=O)C(CC)n2nc(C)n3c(cc4sccc43)c2=O)cc1OCC (configuration not stated)
0.0

----------
# assay_remarks: TOR pathway GLN3 branch reporter MEP2-GFP changes – S. cerevisiae, multiplex flow cytometry, MLPCN library, primary screen (AID 2016);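 further: median GFP fluorescence of the barcode-gated MEP2-GFP cells per well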
# condition_description: S. cerevisiae MEP2-GFP strain, 3 h, at 10 µM, 100% = DMSO control level
Hit rate of the full screen: of about 330,000 compounds, about 1,700 (0.52%) were called active.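 Rule for the calls: active = GFP response versus DMSO above a set limit, roughly screen mean plus 3 SD (cut at about 180% in these data); inconclusive = fewer than 70 cells counted for a yeast strain; inactive = the rest.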 Many of the other results were omitted from the sample, so actives are more common in it than they were.
// one of active, inactive, no free text

Past entries and their recorded results:
* CCCCn1c(N)c(N(CC)C(=O)c2ccc(N(C)S(=O)(=O)c3ccc(C)cc3)cc2)c(=O)[nH]c1=O | inactive
* Cc1ccc(-c2csc(NC(=O)Cn3[nH]c(=O)c4ccccc4c3=O)n2)cc1 | inactive
* Cc1nc2c(ncn2-c2ccccc2)c(=O)n1NC(=O)CN1CCCC1 | active
* Cc1c(C(=O)Nc2cccc(-c3nnc4n3CCCCC4)c2)oc2ccccc12 | inactive

Answer briefly: the call reported for OCc1nc(CO)n(Cc2ccccc2)n1 in this assay.
active

----------
# assay_remarks: TOR pathway GLN3 branch reporter MEP2-GFP changes – S. cerevisiae, multiplex flow cytometry, MLPCN library, primary screen (AID 2016);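 further: median GFP fluorescence of the barcode-gated MEP2-GFP cells per well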
# condition_description: S. cerevisiae MEP2-GFP strain, 3 h, at 10 µM, 100% = DMSO control level
The whole screen tested about 330,000 compounds, of which about 1,700 (0.52%) were called active.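 The calls were made as follows: active = GFP response versus DMSO above a set limit, roughly screen mean plus 3 SD (cut at about 180% in these data); inconclusive = fewer than 70 cells counted for a yeast strain; inactive = the rest.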 The list comes from a sample in which actives are over-represented; it also holds close analogues and randomly drawn compounds.
Use one of these outcomes when replying: y = active, n = inactive

Look over these answered cases.
• COc1cccc(-c2nc(CS(=O)(=O)CC(=O)NCCc3ccc(OC)c(OC)c3)c(C)o2)c1 = n
• CC(C)(C)C(=O)Nc1ccc(-c2cn3cccnc3n2)cc1 = n
• CC1CC(NC(=O)/C(C#N)=C/c2ccc[nH]2)CC(C)(C)C1 (stereo unspecified) = n

Identify the outcome logged in this assay for the molecule shown: CC(=N\NC(=O)c1cc(Br)ccc1O)/C(=N/O)C(=O)Nc1ccccc1
n

How was CCOC(=O)Cc1csc(NC(=O)CN(C)S(=O)(=O)c2ccc3c(c2)CCC(=O)N3)n1 classified in this test?
n

For CC(NCC(=O)Nc1cc(Cl)cc(Cl)c1)c1ccccc1 (stereo unspecified) , which call appears in the assay record?
n

----------
# assay_remarks: TOR pathway GLN3 branch reporter MEP2-GFP changes – S. cerevisiae, multiplex flow cytometry, MLPCN library, primary screen (AID 2016);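 further: median GFP fluorescence of the barcode-gated MEP2-GFP cells per well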
# condition_description: S. cerevisiae MEP2-GFP strain, 3 h, at 10 µM, 100% = DMSO control level
Among all 330,000 compounds or so, about 1,700 (0.52%) were called active.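 The calls were made as follows: active = GFP response versus DMSO above a set limit, roughly screen mean plus 3 SD (cut at about 180% in these data); inconclusive = fewer than 70 cells counted for a yeast strain; inactive = the rest.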 The sample holds actives, similar compounds and a random draw of the others, so the mix is not that of the screen.
The categories you may choose from are label 1 = active, label 0 = inactive

Worked cases, answers included:
• Cc1ccc(C(=O)Nc2ccn(C)n2)cc1 = label 0
• CCCN1C(=O)C(NC(C)=O)c2cc(OC)ccc21 (configuration not stated) = label 0

# fetch the recorded call for O=C(CC12CC3CC(CC(C3)C1)C2)Nc1ccc2c(c1)COC2=O here
label 0

Recorded test outcome, item CCC(=O)Nc1ccc(C(=O)N2CCN(C(=O)c3ccco3)CC2)cc1
label 0

Given O=C(Nc1nccs1)c1cc(S(=O)(=O)N2CCOCC2)c(Cl)cc1Cl , state the outcome it received in this test.
label 0

Name the outcome recorded for COc1c(C)c2c(c(O)c1C/C=C(\C)CCC(=O)O)C(=O)OC2 in the assay.
label 1

Could you kindly confirm the outcome this assay logged for CCN(CC(=O)NC(=O)NCc1ccccc1)Cc1nc2ccccc2c(=O)[nH]1 ?
label 0

Any idea what this test logged for Cc1ccc2nc3c(cc(C(=O)NCCc4ccccc4)c(=N)n3CC3CCCO3)c(=O)n2c1 (configuration not stated) ?
label 1

Recorded test call requested for CCc1ccc(S(=O)(=O)N/N=C\c2ccc([N+](=O)[O-])o2)cc1
label 0

----------
# assay_remarks: TOR pathway GLN3 branch reporter MEP2-GFP changes – S. cerevisiae, multiplex flow cytometry, MLPCN library, primary screen (AID 2016);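 further: median GFP fluorescence of the barcode-gated MEP2-GFP cells per well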
# condition_description: S. cerevisiae MEP2-GFP strain, 3 h, at 10 µM, 100% = DMSO control level
Hit rate of the full screen: of about 330,000 compounds, about 1,700 (0.52%) were called active.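 The calls were made as follows: active = GFP response versus DMSO above a set limit, roughly screen mean plus 3 SD (cut at about 180% in these data); inconclusive = fewer than 70 cells counted for a yeast strain; inactive = the rest.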 The sample as a whole holds a higher share of actives than the screen did.
One label from this list, please: active, inactive

Study these solved cases before continuing.
- Cc1onc(-c2ccccc2)c1C(=O)NNC(=S)NC(=O)c1ccc(F)cc1: active
- COc1ccc(-c2c(C(C)=O)c(C)nc3sc4c(=O)n(-c5ccc(C)cc5)nnc4c23)cc1: inactive
- COc1ccccc1C(=O)COC(=O)COc1ccc(C#N)cc1: inactive
- NC(=O)C1CCN(C(=O)/C(=C/c2ccco2)NC(=O)c2ccccc2)CC1: active
- CC(C)(C)c1ccc(C(CC(=O)O)NS(=O)(=O)Cc2ccccc2)cc1 (stereo not drawn): inactive

Given CCOc1ccc(C(C(=O)NC2CCCC2)N(C(=O)c2snc(C(N)=O)c2N)C2CCCC2)cc1 (stereo not drawn) , state the outcome it received in this test.
inactive

Please state the recorded outcome for this compound: CCN(CC(=O)NCc1cccs1)C(=O)c1ccc(OC)c(S(=O)(=O)N2CCOCC2)c1
inactive

Hello, I am checking results. What call was entered for Cn1c(COc2ccc(Cl)cc2)nc2ccccc2c1=O ?
inactive

Dear colleague, could you share the recorded outcome for NC(=O)c1nsc(C(=O)N(CCCN2CCOCC2)C(C(=O)NC2CCCCC2)c2ccc(Cl)cc2)c1N (stereo not drawn) when you have a moment?
active

What outcome does the record of this test show for Cc1ccc2nnn(Cc3cccc(C(C)(C)C)c3O)c2c1 ?
inactive

Outcome? COc1cc(COCC(O)CN2CCN(Cc3ccc4c(c3)OCO4)CC2)cc(OC)c1OC (stereo not drawn)
inactive

Which result was noted for this compound in the test: CCCCCCNCCn1cnc2c(N)ncnc21
inactive

What was the test verdict on O=C(Cn1ncc(N2CCCC2)c(Br)c1=O)c1ccc(Cl)cc1 ?
inactive

# lookup: test call for CC(C)Cn1cnc2c1c(=O)n(CC(=O)NN)c(=O)n2Cc1ccccc1
inactive

Recorded call for Cc1c(C(=O)OCC(=O)N2CCCC2=O)oc2ccccc12 ?
inactive

// param item: CC(=O)OC(C(=O)NCCc1ccccc1)c1cccnc1 (stereo not drawn) ; yields the recorded call
active

Any idea what this test logged for Cc1cc(C)c(S(=O)(=O)NCCCN2CCOCC2)cc1Br ?
inactive

Query: recorded result category for CCOC(=O)c1cnc(SCC(=O)NCc2ccco2)nc1N in this test
active

So what was the verdict on O=C1/C(=C\Nc2ccccc2)CCN1c1ncccn1 in this test?
inactive

# fetch the recorded call for CC1CC(=S)Nc2ccccc2N1Cc1ccccc1 (stereo not drawn) here
inactive

How was COc1ccc2cc1Oc1ccc(cc1)C[C@H]1c3cc(c(OC)cc3CCN1C)Oc1c(O)c(OC)cc3c1[C@H](C2)N(C)CC3 classified in this test?
inactive

Kindly provide the recorded test outcome for the following compound: CCOC(=O)N1CCN(C(=O)CNC(=O)Cc2ccc(Cl)cc2)CC1
inactive

Give the logged outcome of this assay for the following compound: C=CCC[C@@H](Cc1ccc(F)cc1)C(=O)O[C@H](CNC(=O)[C@H](CC=C)CC(=O)N(CCO)Cc1ccccc1)c1ccccc1
inactive

What outcome does the record of this test show for COc1cccc(NC(=O)C(Sc2nnnn2C)c2ccccc2)c1 (stereo not drawn) ?
inactive
